- Tested on: methicillin-resistant S. aureus SA 3202 (MRSA1)
- assay.remarks: MIC, microtitration broth method
- Assay type: cell-based
- reported.conditions: Staphylococcus aureus; MRSA1 = SA 3202; 24 h, 37 °C
reported.endpoint: log10(MIC) (log10 of the value in µM)

>>> test_value("C=CCOc1ccc2c(c1)Sc1c[n+](C)c3ccccc3c1N2")
1.65
>>> test_value("C=CCOc1cccc2c1Nc1c(c[n+](C)c3ccccc13)S2")
2.56
>>> test_value("C[n+]1cc2c(c3ccccc31)Nc1ccc(OCc3ccccc3)cc1S2")
0.69
>>> test_value("CCCOc1ccc2c(c1)Nc1c(c[n+](C)c3ccccc13)S2")
1.65
>>> test_value("C[n+]1cc2c(c3ccccc31)Nc1c(OCc3ccccc3)cccc1S2")
1.59

---

- System: S. aureus ATCC 29213 respiratory activity
- assay.remarks: MTT assay of bacterial respiration
- Assay type: cell-based, Staphylococcus aureus
- reported.conditions: at the concentration given
Listing of entries alongside the reported S. aureus Respiration Inhibition.
reported.endpoint: S. aureus Respiration Inhibition (%)

>>> test_value("C#CCOc1ccc2c(c1)Sc1c[n+](C)c3ccccc3c1N2")
96.8
>>> test_value("C[n+]1cc2c(c3ccccc31)Nc1cc(OCc3ccccc3)ccc1S2")
97.6
>>> test_value("C[n+]1cc2c(c3ccccc31)Nc1ccc(OCc3ccccc3)cc1S2")
91.3
